- assaySystem: Melanin-concentrating hormone receptor 1 (Homo sapiens, UniProt Q99705)
- Sequence (Q99705 whole entry, the tested form may be a part): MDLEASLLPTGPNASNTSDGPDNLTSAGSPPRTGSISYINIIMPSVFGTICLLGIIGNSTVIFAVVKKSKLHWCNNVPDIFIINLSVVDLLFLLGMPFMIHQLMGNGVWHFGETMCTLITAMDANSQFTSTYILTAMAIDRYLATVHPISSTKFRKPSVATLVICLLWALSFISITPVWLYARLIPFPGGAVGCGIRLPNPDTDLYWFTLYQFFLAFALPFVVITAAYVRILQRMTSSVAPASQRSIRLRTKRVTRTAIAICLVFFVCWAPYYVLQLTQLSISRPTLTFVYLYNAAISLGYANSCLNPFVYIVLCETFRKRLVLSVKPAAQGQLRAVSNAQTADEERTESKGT
- assay: Antagonist activity against human MCHR1 expressed in CHO cells by Gal4/Elk1-Luc reporter assay
assayReadout: log10 IC50 (log10 of the value in nM)
Answers are given as log10 of IC50 in nM.

molecule=O=c1c2sc(-c3ccc(Cl)cc3)cc2ncn1-c1ccc2ncccc2c1 assayreadout="log10 IC50" numericvalue=1.80
molecule=O=c1c2sc(-c3cccc(Cl)c3)cc2ncn1-c1ccc2nc(CN3CCOCC3)ccc2c1 assayreadout="log10 IC50" numericvalue=3.60
molecule=O=c1c2sc(-c3ccc(Cl)cc3)cc2ncn1-c1ccc2nc(CN3CCCCC3)ccc2c1 assayreadout="log10 IC50" numericvalue=-0.05
molecule="O=c1c2sc(-c3ccc(Cl)cc3)cc2ncn1-c1ccc2c(c1)NCC(CN1CC[C@H](O)C1)O2 (stereo not given in full)" assayreadout="log10 IC50" numericvalue=0.72

Could you now look at the following molecule, please?
*Q* Return reported log10 IC50. Input molecule: `O=c1c2sc(-c3ccc(Cl)cc3)cc2ncn1-c1ccc2nc(CN3CCC(N4CCCC4)CC3)ccc2c1`
*A* 0.75
